Target: T1, CEACAM1 antigen (Sino Biological, Inc.) (UniProt P13688 35-428)
T1 construct: Bought antigen coated on the ELISA plate; construct not described; also called CEACAM1 (CD66a) antigen; CD66a
T1 sequence (looked up): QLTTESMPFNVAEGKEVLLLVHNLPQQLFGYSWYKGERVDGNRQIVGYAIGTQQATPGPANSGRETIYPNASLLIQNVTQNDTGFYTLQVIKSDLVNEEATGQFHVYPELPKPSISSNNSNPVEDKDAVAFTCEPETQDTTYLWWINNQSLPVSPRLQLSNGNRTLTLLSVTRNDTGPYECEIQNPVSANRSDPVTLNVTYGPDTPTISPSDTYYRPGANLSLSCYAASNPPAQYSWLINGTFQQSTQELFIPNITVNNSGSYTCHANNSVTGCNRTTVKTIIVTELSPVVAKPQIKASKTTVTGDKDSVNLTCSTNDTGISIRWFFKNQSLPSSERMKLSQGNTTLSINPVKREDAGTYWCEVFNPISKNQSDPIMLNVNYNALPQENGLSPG
Assay: ELISA, coated CEACAM1 100 ng/well, antibody 3333.33 ng/ml
Returns: string. Value is y if measured OD 450 nm is below 1 OD, and n if it is greater than or equal to it.

[
  {
    "Binder": "recombinant humanized anti-CD66c antibody Protein ID 3058 (Vk8 + VH11) (antibody, human IgG1, V domains shown, also called hu 3058; #86) VH: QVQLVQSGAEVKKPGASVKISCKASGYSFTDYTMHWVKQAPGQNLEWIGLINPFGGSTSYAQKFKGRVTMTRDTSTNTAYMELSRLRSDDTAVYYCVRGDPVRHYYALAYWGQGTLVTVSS VL: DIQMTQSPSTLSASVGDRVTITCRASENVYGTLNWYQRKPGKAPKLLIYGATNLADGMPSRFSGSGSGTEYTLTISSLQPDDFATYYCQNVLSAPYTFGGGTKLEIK",
    "Assigned Category": "y"
  },
  {
    "Binder": "recombinant humanized anti-CD66c antibody Protein ID 3007 (Vk7 + VH6) (antibody, human IgG1, V domains shown, also called hu 3007; #43) VH: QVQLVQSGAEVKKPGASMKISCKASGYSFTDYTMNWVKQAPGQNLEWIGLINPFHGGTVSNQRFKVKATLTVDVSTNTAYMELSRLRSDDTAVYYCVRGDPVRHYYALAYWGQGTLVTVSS VL: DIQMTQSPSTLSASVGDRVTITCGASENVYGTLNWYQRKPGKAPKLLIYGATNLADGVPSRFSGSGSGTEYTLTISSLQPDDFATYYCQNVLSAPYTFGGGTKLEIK",
    "Assigned Category": "n"
  },
  {
    "Binder": "recombinant humanized anti-CD66c antibody Protein ID 3043 (Vk8 + VH6) (antibody, human IgG1, V domains shown, also called hu 3043; #71) VH: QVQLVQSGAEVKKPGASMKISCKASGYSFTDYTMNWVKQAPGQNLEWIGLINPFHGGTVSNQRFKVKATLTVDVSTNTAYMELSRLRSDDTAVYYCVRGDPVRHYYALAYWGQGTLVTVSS VL: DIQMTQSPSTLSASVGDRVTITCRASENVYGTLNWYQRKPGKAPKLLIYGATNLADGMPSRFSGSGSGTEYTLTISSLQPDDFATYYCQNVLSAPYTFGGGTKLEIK",
    "Assigned Category": "n"
  },
  {
    "Binder": "anti-CD66c chimeric antibody 8F5 (antibody, human IgG1, V domains shown, also called chimeric 8F5 antibody; chi 8F5) VH: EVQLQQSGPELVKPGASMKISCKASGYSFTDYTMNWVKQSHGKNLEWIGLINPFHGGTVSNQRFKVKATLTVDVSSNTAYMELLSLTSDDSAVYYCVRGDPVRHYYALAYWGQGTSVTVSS VL: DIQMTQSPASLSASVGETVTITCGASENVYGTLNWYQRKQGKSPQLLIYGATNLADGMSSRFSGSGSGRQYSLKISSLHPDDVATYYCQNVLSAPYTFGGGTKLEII",
    "Assigned Category": "n"
  }
]

Here's the next entry for you.
Query: Consider the binder recombinant humanized anti-CD66c antibody Protein ID 2938 (Vk5 + VH7) (antibody, human IgG1, V domains shown, also called hu 2938) VH: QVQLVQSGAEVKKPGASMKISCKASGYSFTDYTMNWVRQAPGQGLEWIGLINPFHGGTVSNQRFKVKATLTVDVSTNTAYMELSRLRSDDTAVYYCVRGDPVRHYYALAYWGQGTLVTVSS VL: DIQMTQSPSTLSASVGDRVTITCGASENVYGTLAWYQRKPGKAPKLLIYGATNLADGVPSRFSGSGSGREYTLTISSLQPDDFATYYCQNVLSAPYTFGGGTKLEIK . Is its OD 450 nm strictly less than 1 OD?
Reply: y
